From: PubChem BioAssay (NCI)

The reader will find reported TGI values listed item by item below.
# System: KM12 colon
# testDescription: NCI tumour cell line growth inhibition, 48 h

(Q) Which TGI is reported for this compound? `CN(C)CCCNC(=S)S`
(A) > 100 µM

(Q) Which TGI is reported for this compound? `CN(C)c1ccc(/C=C2\N=C(N/N=C/c3ccc(N(C)C)cc3)NC2=O)cc1`
(A) > 100 µM

----------
# Test system: A549 NSCLC
# testDescription: NCI tumour cell line growth inhibition, 48 h
readoutType: TGI

O=C(Nc1ccc(Cl)cc1)Oc1ccc(C(=S)Nc2ccc(Br)cc2)cc1    > 100 µM
C=C1C2CC[C@@](C)(O)C2[C@H]2OC(=O)C(=C)[C@@H]2C[C@H]1O (some centres not stated)    > 100 µM
COc1ccc(O)cc1C=O    > 100 µM

(Q) Which TGI is reported for this compound? `Cc1ccnc2[nH]c(-c3cccc4ccccc34)cc(=O)c12`
(A) > 100 µM
